# System: HCC-2998 colon
# PROTOCOL_DESCRIPTION: NCI tumour cell line growth inhibition, 48 h
MEASURE_NAME: TGI (µM)
Numeric only. Scale: µM

Entry CC(=O)c1ccc2c(c1)CC1(C2)Cc2cc3c(cc2C1=O)CCC3 (stereo not drawn) under HCC-2998 colon had TGI of 68.4

Entry O=C(CCl)NNC1=Nc2ccc(Cl)cc2SC1 under HCC-2998 colon had TGI of 9.97

---

# System: OVCAR-8 ovarian
# PROTOCOL_DESCRIPTION: NCI tumour cell line growth inhibition, 48 h
// 0.0 strictly below 60 µM in TGI; 1.0 otherwise

Exam item: decide whether the reported TGI for C/C(=C\c1ccc2ccccc2c1)[N+](=O)[O-] is at least 60 µM.
0.0

Exam item: decide whether the reported TGI for COc1cc2c(c(OC)c1)/C(=C/Sc1ccccc1)C(=O)N(C(C)(C)C)C2 is at least 60 µM.
1.0

Exam item: decide whether the reported TGI for CCOC(=O)C1=NOC2(C=C(Br)C(=O)C(Br)=C2)C1 is at least 60 µM.
0.0

Exam item: decide whether the reported TGI for c1ccc2c(c1)C1CCCCCC21N1CCOCC1 (centres undefined) is at least 60 µM.
1.0

Exam item: decide whether the reported TGI for CN1C(=O)N(C)C2C1NN=c1s/c(=C\c3ccc(C(F)(F)F)cc3)c(=O)n12 (centres undefined) is at least 60 µM.
0.0

Exam item: decide whether the reported TGI for Cc1ccc2c(C3Cc4ccccc4N3C(=O)/C=C\C(=O)O)c(C)[nH]c2c1 (centres undefined) is at least 60 µM.
1.0

Exam item: decide whether the reported TGI for NC(=O)c1csc(C2OC(CO)C(O)C2O)n1 (centres undefined) is at least 60 µM.
1.0

Exam item: decide whether the reported TGI for COc1ccc(CC2(O)C3CC4CCC2C4C3)cc1 (centres undefined) is at least 60 µM.
1.0

---

# Tested on: NCI-H226 lung
# PROTOCOL_DESCRIPTION: NCI tumour cell line growth inhibition, 48 h; in the data active means GI50 below about 0.43 µM; inactive means the rest
Outcome (select one): T for active, F for inactive

Which outcome was entered for the molecule COc1cc2nc(N3CCCC3)nc(NCCc3ccccc3)c2cc1OC in this test?
F

Which outcome was entered for the molecule CN=c1ccc2nc3ccc(N)cc3sc-2c1 in this test?
F

Which outcome was entered for the molecule O=C1/C(=C/c2ccccc2[N+](=O)[O-])Cc2ccccc21 in this test?
F

Which outcome was entered for the molecule CC(=O)OC12C=C(C)C(C(C)C1)C1C(=O)N(CCN3CCOCC3)C(=O)C12 (configuration not stated) in this test?
F

Which outcome was entered for the molecule CN1C(=O)N(C)C2C1NN=c1s/c(=C\c3ccc(C(F)(F)F)cc3)c(=O)n12 (configuration not stated) in this test?
F

Which outcome was entered for the molecule COc1ccc(-c2nc(Nc3cc(C)[nH]n3)c3ccccc3n2)cc1 in this test?
F

Which outcome was entered for the molecule COc1cc(N2C(=O)[C@H](O)C2c2ccc(SC)cc2)cc(OC)c1OC (some centres not stated) in this test?
T

---

So I've got a bunch of compounds here, and I need their TGI values.
# Tested on: SW-620 colon
# PROTOCOL_DESCRIPTION: NCI tumour cell line growth inhibition, 48 h

Entry CN(C)c1ccc(NN=C2SC(=Nc3ccccc3)C(=Nc3ccccc3)S2)cc1 under SW-620 colon had TGI of > 100 µM

Entry CC(=O)CN(Cc1cc(C)c2c(c1)c1ccccc1n2Cc1ccccc1)S(=O)(=O)c1ccc(C)cc1 under SW-620 colon had TGI of > 100 µM

Entry CC1(C)OC(=O)C(C#N)=C1/C=C/c1coc2ccc(Cl)cc2c1=O under SW-620 colon had TGI of > 100 µM

Entry COc1cc2c(cc1OC)C1C=NC(C2)c2cc(OC)c(OC)cc21 (configuration not stated) under SW-620 colon had TGI of > 100 µM

Entry C[n+]1ccc(/C2=C3\C=CC(=N3)/C(c3cc[n+](C)cc3)=c3/cc/c([nH]3)=C(\c3cc[n+](C)cc3)C3=N/C(=C(/c4cc[n+](C)cc4)C4C=CC2N4)C=C3)cc1 under SW-620 colon had TGI of > 100 µM

Entry Fc1ccc(/C=N/n2c(-c3ccc(F)c(Cl)c3)nn(CNc3ccccc3C(F)(F)F)c2=S)cc1 under SW-620 colon had TGI of > 100 µM

Entry O=C1NC(=O)C(N2C(=O)c3ccccc3C2=O)CC1O (configuration not stated) under SW-620 colon had TGI of > 100 µM

Entry CC(=O)OC12C=C(C)C(C(C)C1)C1C(=O)N(CCN3CCOCC3)C(=O)C12 (configuration not stated) under SW-620 colon had TGI of > 100 µM

Entry O=C(NC1=C(Cl)C(=O)c2ccccc2C1=O)c1ccc(F)cc1 under SW-620 colon had TGI of 2.51 µM

Entry N#CC(=C1C=CC(=NO)C=C1)c1ccc(Cl)cc1 under SW-620 colon had TGI of 24 µM

Entry O=S(=O)(c1ccc(Cl)cc1)C(Cl)(Cl)Cl under SW-620 colon had TGI of 11.7 µM

Entry CCOC(=O)C1C(c2ccc3c(c2)OCO3)c2c([nH][nH]c2=O)CC1(C)O (configuration not stated) under SW-620 colon had TGI of > 100 µM

Entry COc1ccc2c(c1)C(=O)C1CC(=O)CCC21 (configuration not stated) under SW-620 colon had TGI of > 100 µM

Entry O=C(NN1C(=O)CSC12CCCCC2)c1[nH]c2ccc(Br)cc2c1-c1ccccc1 under SW-620 colon had TGI of > 100 µM

Entry O=C(/C=C\c1cccc([N+](=O)[O-])c1)/C=C/c1cccc([N+](=O)[O-])c1 under SW-620 colon had TGI of 4.53 µM

Entry NC(N)=NCC[C@H](NC(=O)OCCCCCn1ccc(=O)[nH]c1=O)C(=O)O under SW-620 colon had TGI of > 100 µM

Entry OCCNCCN1CCN(CCCN2c3ccccc3Sc3ccc(C(F)(F)F)cc32)CC1 under SW-620 colon had TGI of 35.3 µM
